biological target: Cytochrome P450 2C19 (Homo sapiens, UniProt P33261); assay: Cytochrome panel assay with activity outcomes. Panel member name: p450-cyp2c19 Compounds with AC50 equal or less than 10 uM are considered active; type: functional; settings: read-out: AC50
Sequence (P33261 whole entry): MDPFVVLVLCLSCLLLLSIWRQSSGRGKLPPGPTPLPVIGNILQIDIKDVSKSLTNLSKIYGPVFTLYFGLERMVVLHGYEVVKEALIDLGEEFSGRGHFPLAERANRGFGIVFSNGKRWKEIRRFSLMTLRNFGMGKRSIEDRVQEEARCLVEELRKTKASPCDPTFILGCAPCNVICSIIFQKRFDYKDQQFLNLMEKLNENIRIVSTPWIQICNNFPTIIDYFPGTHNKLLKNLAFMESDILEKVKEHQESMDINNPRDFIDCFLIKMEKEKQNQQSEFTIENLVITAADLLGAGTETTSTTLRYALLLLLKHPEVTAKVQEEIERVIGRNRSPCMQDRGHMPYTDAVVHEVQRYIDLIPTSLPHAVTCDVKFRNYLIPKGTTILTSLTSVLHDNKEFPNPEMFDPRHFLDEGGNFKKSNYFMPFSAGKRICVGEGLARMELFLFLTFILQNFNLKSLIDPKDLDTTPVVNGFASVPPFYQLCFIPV
Assign AC50 to each entry below.

(Q) Any idea what its AC50 is? The compound is COc1ccc(/C=N/NC(=O)CCCC(=O)NC2CCCCC2)cc1
(A) 14.1 µM (inconclusive)

(Q) Any idea what its AC50 is? The compound is Cn1cccc1C(=O)N1CCC2(CCN(Cc3ccncc3)CC2)CC1
(A) 15.8 µM (inconclusive)

(Q) Any idea what its AC50 is? The compound is C=CCNC(=O)c1ccc(-c2nc(-c3ccc(Cl)c(Cl)c3)cs2)cc1
(A) 28.2 µM (inconclusive)

(Q) Any idea what its AC50 is? The compound is CN1CCCN(S(=O)(=O)c2ccc3c(c2)OCCO3)CC1
(A) 25.1 µM (inconclusive)

(Q) Any idea what its AC50 is? The compound is COc1ccccc1CNc1ncnc2ccc(-c3cccnc3)cc12
(A) 20 µM (inconclusive)

(Q) Any idea what its AC50 is? The compound is Cc1ccc(C)c(NC(=O)C2(C)CC3c4ccccc4C2c2ccccc23)c1 (stereo unspecified)
(A) 0.00562 µM (inconclusive)

====

experiment: Luminescence Cell-Based Dose Response HTS to Identify Inhibitors of 5'UTR Stem-Loop Driven Prion Protein mRNA Translation in H4 Neuroglioblastoma Cells. [Related pubchem assays: 1827 (Project Summary), 1813 (Primary HTS)]; assay type: functional
Activity calls are given as the source filed them.
Experimental endpoint: EC50

(Q) Any idea what its EC50 is? The compound is CCN(C(=O)COC(=O)c1cc(-c2ccc3cc(OC)ccc3c2)nc2ccccc12)C1CCS(=O)(=O)C1 (stereo unspecified)
(A) 13.9 µM (active)

(Q) Any idea what its EC50 is? The compound is NC(=O)c1c(NC(=O)c2ccc([N+](=O)[O-])o2)sc2c1CCCC2
(A) 47.5 µM (active)

(Q) Any idea what its EC50 is? The compound is CCCc1nnc(NC(=O)c2c(O)c3cccc4c3n(c2=O)CCC4)s1
(A) > 120 µM (not active)

(Q) Any idea what its EC50 is? The compound is N#Cc1nc(Cc2cccc3ccccc23)oc1N1CCCCC1
(A) > 120 µM (not active)

(Q) Any idea what its EC50 is? The compound is O=C1c2ccccc2C(=O)C12Cc1ccccc1N1CCN(c3ccccc3)CC12 (stereo unspecified)
(A) > 120 µM (not active)

(Q) Any idea what its EC50 is? The compound is CC(C)(C)c1ccc(Oc2ccc(N)cn2)cc1 [LIMANTRAFIN]
(A) 5.68 µM (active)

====

target: Protein RecA (Mycobacterium tuberculosis, UniProt P9WHJ3); experiment: Fluorescence Cell-Free Homogeneous Dose Retest to Identify Inhibitors of RecA-Intein Splicing Activity. [Related pubchem assays (depositor defined):AID2097, AID2223, AID489010, AID492950]; assay type: functional
The source made the active and inactive calls.
Experimental endpoint: EC50

(Q) Any idea what its EC50 is? The compound is COc1ccccc1-n1nnnc1S(=O)(=O)Cc1ccc(Cl)cc1
(A) 1.94 µM (active)

(Q) Any idea what its EC50 is? The compound is Oc1cc(-c2ccc(Cl)c(Cl)c2)[nH]n1
(A) 0.852 µM (active)

(Q) Any idea what its EC50 is? The compound is CC(=O)c1ccc(OC(=O)c2cccs2)cc1
(A) 12.2 µM (active)

(Q) Any idea what its EC50 is? The compound is Cn1cnc([N+](=O)[O-])c1Sc1ccc(C(C)(C)C)cc1
(A) 14.1 µM (active)

(Q) Any idea what its EC50 is? The compound is O=C1C(Cl)=C(N2CCCCC2)C(=O)C(Cl)=C1c1cnc(N2CCCCC2)s1
(A) 0.766 µM (active)

(Q) Any idea what its EC50 is? The compound is COc1ccc(OC)c(Nc2cc3ccccc3c(O)n2)c1
(A) 1.34 µM (active)

(Q) Any idea what its EC50 is? The compound is COC(=O)[C@@H]1[C@@H](C(=O)OC)C2(c3ccccc3-c3ccccc32)N(c2ccc(Cl)cc2)N1C#N
(A) 5.38 µM (active)

(Q) Any idea what its EC50 is? The compound is Cc1n[nH]c2c1C(CC(C)C)C(C#N)=C(N)O2 (configuration not stated)
(A) 3.84 µM (active)

(Q) Any idea what its EC50 is? The compound is Cn1c(=O)c([N+](=O)[O-])c(-n2cnc3ccccc32)c2ccccc21
(A) 7.26 µM (active)

(Q) Any idea what its EC50 is? The compound is Nc1ccc2c(c1)C(=O)C(=O)c1ccccc1-2
(A) 6.36 µM (active)

(Q) Any idea what its EC50 is? The compound is N#CC1=C(N)C(C#N)(C#N)C(c2cccnc2)C2CN(C(=O)OCc3ccccc3)CC=C12 (configuration not stated)
(A) 2.59 µM (active)

(Q) Any idea what its EC50 is? The compound is COC(CNC(=O)c1ccc2c3c(onc13)-c1ccccc1C2=O)OC
(A) 5.99 µM (active)

====

Assign AC50 to each entry below.
Target chain: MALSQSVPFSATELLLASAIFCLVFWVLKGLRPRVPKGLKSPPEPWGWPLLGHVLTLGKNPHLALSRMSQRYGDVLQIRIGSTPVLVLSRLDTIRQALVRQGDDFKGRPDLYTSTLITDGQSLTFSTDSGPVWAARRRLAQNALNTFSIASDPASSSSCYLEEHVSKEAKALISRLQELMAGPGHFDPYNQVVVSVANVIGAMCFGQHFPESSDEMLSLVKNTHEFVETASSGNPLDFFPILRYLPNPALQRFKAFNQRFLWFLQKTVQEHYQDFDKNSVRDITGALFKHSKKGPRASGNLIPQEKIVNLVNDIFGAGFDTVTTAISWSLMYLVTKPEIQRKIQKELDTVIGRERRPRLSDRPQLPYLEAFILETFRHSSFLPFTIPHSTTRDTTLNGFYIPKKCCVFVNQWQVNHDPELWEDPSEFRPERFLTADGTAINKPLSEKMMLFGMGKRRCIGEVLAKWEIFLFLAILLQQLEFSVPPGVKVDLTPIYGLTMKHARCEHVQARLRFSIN

(Q) Any idea what its AC50 is? The compound is COc1ccc(-n2c(=O)c(-c3cc(F)cc(F)c3)nc3cnc(N4CCOCC4)nc32)cc1
(A) 15.8 µM (inconclusive)

(Q) Any idea what its AC50 is? The compound is CCOc1c2ccc(C(=O)NCCCCc3ccccc3)cc2nn1CC
(A) 6.31 µM (inconclusive)

(Q) Any idea what its AC50 is? The compound is Cc1nn2c(O)c3c(nc2c1-c1cccc2ccccc12)CCC3
(A) 25.1 µM (inconclusive)

(Q) Any idea what its AC50 is? The compound is N[C@@H](CCC(=O)O)C(=O)O
(A) 39.8 µM (inconclusive)

(Q) Any idea what its AC50 is? The compound is Cc1ccc(C)c(-c2cc(C(=O)Nc3sc(C)c(C)c3C(N)=O)c3ccccc3n2)c1
(A) 3.16 µM (inconclusive)

(Q) Any idea what its AC50 is? The compound is Cc1cc(NC(=O)CCN2C(=O)C3C4CCC(C4)C3C2=O)c(C)cc1Br (stereo not drawn)
(A) 15.8 µM (inconclusive)

(Q) Any idea what its AC50 is? The compound is Cc1c(S(=O)(=O)O)ccc(/N=N\c2c(O)c(C(=O)O)cc3ccccc23)c1Cl
(A) 5.01 µM (inconclusive)

(Q) Any idea what its AC50 is? The compound is CCCS(=O)(=O)N1CCCC(C(=O)N2CCN(c3ccccc3)CC2)C1 (stereo not drawn)
(A) 0.00501 µM (inconclusive)

====

biological target: Rac GTPase-activating protein 1 (Homo sapiens, UniProt Q9H0H5); test: blockers of MgcRacGAP-driven Rac1 GTP hydrolysis – biochemical, ADP Hunter fluorescence, primary and confirmatory, confirmation (AID 624330); format: functional
Sequence (Q9H0H5 whole entry): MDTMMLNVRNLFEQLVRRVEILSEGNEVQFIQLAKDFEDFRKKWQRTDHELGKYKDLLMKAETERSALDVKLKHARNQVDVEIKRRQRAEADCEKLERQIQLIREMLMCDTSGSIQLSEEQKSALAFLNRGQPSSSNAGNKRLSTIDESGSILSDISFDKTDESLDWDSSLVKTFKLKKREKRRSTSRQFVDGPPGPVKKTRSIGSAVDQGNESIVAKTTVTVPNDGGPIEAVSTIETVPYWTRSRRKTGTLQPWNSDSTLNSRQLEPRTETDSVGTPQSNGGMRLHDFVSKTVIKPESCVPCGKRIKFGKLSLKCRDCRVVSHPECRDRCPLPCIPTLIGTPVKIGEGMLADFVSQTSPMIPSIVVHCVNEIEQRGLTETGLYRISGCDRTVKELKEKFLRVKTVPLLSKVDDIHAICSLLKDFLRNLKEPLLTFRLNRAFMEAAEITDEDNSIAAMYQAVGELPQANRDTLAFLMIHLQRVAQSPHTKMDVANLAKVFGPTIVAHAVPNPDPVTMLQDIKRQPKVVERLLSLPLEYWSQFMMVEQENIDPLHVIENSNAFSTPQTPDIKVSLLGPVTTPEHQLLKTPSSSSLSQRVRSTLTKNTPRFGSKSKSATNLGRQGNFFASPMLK
The source made the active and inactive calls.
Experimental endpoint: IC50

(Q) Any idea what its IC50 is? The molecule is CCn1c(CSc2nc3ccccc3s2)nnc1SCC(=O)c1ccc(O)c(O)c1
(A) 179 µM (active)

(Q) Any idea what its IC50 is? The molecule is CN(C)c1ccc(C=Cc2cnccn2)cc1
(A) 38.6 µM (active)

(Q) Any idea what its IC50 is? The molecule is Cc1ccccc1C(=O)Nc1ccc(N2CCCC2)cc1
(A) 79.7 µM (active)

(Q) Any idea what its IC50 is? The molecule is O=C(Nc1ccccn1)c1ccc2ccccc2c1O
(A) 73 µM (active)

(Q) Any idea what its IC50 is? The molecule is CC(=O)Nc1ccc(Oc2nc(-c3ccccn3)nc3ccccc23)cc1
(A) 43.5 µM (active)

(Q) Any idea what its IC50 is? The molecule is C/N=c1\scc(C)n1/N=C/c1ccc(O)cc1
(A) 20.9 µM (active)

(Q) Any idea what its IC50 is? The molecule is Cc1cc2[nH]c3c4ccccc4nc(C)c3c2cc1C
(A) 38.9 µM (active)

(Q) Any idea what its IC50 is? The molecule is COc1cc(/C=C/C(C)=NNc2ccccc2)ccc1O
(A) 51.9 µM (active)

(Q) Any idea what its IC50 is? The molecule is COc1cc(-c2ccc(Nc3ccccc3C(=O)O)c(OC)c2)ccc1Nc1ccccc1C(=O)O
(A) 41.4 µM (active)

(Q) Any idea what its IC50 is? The molecule is CCOC(=O)c1c(C)[nH]c(C(=O)CN2CCN(CC)CC2)c1C
(A) 60.6 µM (active)

(Q) Any idea what its IC50 is? The molecule is O=C(N/N=C/c1ccc(O)c(O)c1)c1cccc(S(=O)(=O)N2CCCCC2)c1
(A) 85.3 µM (active)

(Q) Any idea what its IC50 is? The molecule is COc1ccc(NC(=O)c2cccc(-c3ccc(O)cc3)c2)cn1
(A) 42.3 µM (active)
